The values you see were collected from paper PMC4982440.

- System: S6K (Homo sapiens, UniProt P23443)
- Construct: recombinant S6K
- Sequence (P23443 whole entry): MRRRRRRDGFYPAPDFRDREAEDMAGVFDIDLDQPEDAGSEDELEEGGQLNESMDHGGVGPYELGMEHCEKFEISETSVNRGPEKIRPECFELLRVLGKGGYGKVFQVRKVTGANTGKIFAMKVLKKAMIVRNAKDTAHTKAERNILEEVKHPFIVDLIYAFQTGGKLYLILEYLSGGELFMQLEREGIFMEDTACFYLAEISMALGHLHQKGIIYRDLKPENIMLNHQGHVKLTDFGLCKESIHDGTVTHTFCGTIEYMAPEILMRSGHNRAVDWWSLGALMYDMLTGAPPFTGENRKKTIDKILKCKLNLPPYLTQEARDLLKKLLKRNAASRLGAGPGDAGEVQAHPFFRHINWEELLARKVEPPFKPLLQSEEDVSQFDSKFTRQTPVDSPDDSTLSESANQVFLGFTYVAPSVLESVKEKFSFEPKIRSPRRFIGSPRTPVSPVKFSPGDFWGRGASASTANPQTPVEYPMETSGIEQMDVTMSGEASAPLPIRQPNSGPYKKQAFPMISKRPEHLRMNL
- Protocol Notes: recombinant in vitro kinase assay
pIC50: −log10 of the molar value.

| Compound | pIC50 |
| --- | --- |
| Nc1n[nH]c2nc(-c3ccc(NS(=O)(=O)c4cccc(Cl)c4Cl)cc3)cnc12 [SGK1-inh] | 7.48 |

###

- System: SGK3 (Homo sapiens)
- Sequence (Q96BR1 whole entry): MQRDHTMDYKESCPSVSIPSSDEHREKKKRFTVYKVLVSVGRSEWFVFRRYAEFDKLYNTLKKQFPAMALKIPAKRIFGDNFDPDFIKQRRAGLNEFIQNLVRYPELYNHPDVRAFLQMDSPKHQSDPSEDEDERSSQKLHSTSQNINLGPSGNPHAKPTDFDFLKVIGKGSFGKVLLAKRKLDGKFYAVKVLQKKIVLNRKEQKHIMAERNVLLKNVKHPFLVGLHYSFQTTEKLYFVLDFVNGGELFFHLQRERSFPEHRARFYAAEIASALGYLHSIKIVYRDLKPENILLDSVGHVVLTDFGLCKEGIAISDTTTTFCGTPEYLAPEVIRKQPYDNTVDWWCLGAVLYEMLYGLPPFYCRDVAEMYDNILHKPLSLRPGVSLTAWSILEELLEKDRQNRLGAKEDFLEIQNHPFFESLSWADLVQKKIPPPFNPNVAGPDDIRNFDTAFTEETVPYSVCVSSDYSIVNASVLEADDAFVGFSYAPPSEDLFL

| Compound | IC50 (nM) |
| --- | --- |
| Nc1n[nH]c2nc(-c3ccc(NS(=O)(=O)c4cccc(Cl)c4Cl)cc3)cnc12 [SGK1-inh] | 590 |
